test system: expanded OPCs; test: cells; settings: alamarBlue viability of expanded OPCs, compound at 0.1 µM, relative to DMSO control
Listed compounds paired with reported 0.1 µM (% DMSO)
Your answer should be a plain number; it is taken to be in % DMSO.

{"columns": ["compound", "0.1 µM (% DMSO)"],
 "data": [
  ["Cc1cccc(Nc2ccccc2C(=O)O)c1C [Mefenamic Acid]", 92.7]
]}

# input What measured 0.1 µM (% DMSO) is associated with CCN1CCN(C(=O)N[C@@H](C(=O)N[C@@H]2C(=O)N3[C@@H]2SC(C)(C)[C@@H]3C(=O)O)c2ccccc2)C(=O)C1=O [Piperacillin] on expanded OPCs?
# output 89.0

# input API: value(readout=0.1 µM (% DMSO), system=expanded OPCs) for record CC(C)(C(=O)c1cccnc1)c1cccnc1 [Metyrapone]
# output 90.5

# input Could you share what 0.1 µM (% DMSO) was measured for O=C(O)c1cc(=O)c2c(OCC(O)COc3cccc4oc(C(=O)O)cc(=O)c34)cccc2o1 [Cromolyn Sodium] , tested on expanded OPCs?
# output 93.1

# input # value lookup — system expanded OPCs, readout 0.1 µM (% DMSO), item CC(C)OC(=O)C(C)(C)Oc1ccc(C(=O)c2ccc(Cl)cc2)cc1 [Fenofibrate]
# output 85.2

# input I'm curious: which 0.1 µM (% DMSO) was measured for Cc1ccc(C)c(OCCCC(C)(C)C(=O)O)c1 [Gemfibrozil] tested on expanded OPCs?
# output 90.1

# input Report 0.1 µM (% DMSO) for O=C1c2c(O)ccc(O)c2C(=O)c2c(NCCNCCO)ccc(NCCNCCO)c21 [Mitoxantrone] tested on expanded OPCs.
# output 9.7

----------
test system: expanded OPCs; assay: cells
readout-type: 0.1 µM (% DMSO)
Number in % DMSO, nothing else.

{"columns": ["compound", "unit-text", "0.1 µM (% DMSO)"],
 "data": [
  ["CN1CCN2c3ncccc3Cc3ccccc3C2C1 (stereo not shown)", "% DMSO", 90.1],
  ["Cl.Cl.O=C(O)COCCN1CCN(C(c2ccccc2)c2ccc(Cl)cc2)CC1 (stereo not shown)", "% DMSO", 98.3],
  ["C[C@H]1C[C@H]2[C@@H]3CCC4=CC(=O)C=C[C@]4(C)[C@@]3(Cl)[C@@H](O)C[C@]2(C)[C@@]1(O)C(=O)CO", "% DMSO", 90.7]
]}

// next item, 0.1 µM (% DMSO) requested
# input I'd like to know its 0.1 µM (% DMSO). The compound in question is `CC1=C(C/C=C(\C)CCC[C@H](C)CCC[C@H](C)CCCC(C)C)C(=O)c2ccccc2C1=O`
# output 96.6

----------
The entries below come with measured activation at 0.08 µM values attached.
tested on: acutely dissociated and purified rat OPCs; assay: Acute OL differentiation assay (MBP expression/cell, immunofluorescent image quantification); type: cell-based; conditions: Rattus norvegicus, test compound at 0.08 uM; MBP expression relative to quetiapine; NCC library screen, sheet "All OLga data"; read-out: 0.08 uM (% Quet)
Kindly answer with a numeric value in %, unit omitted.

{"columns": ["compound", "activation at 0.08 µM, %"],
 "data": [
  ["OC(c1cc(C(F)(F)F)nc2c(C(F)(F)F)cccc12)C1CCCCN1 (stereo not drawn)", -20.5]
]}

Please turn your attention to the following entry.
# input I am curious: what activation at 0.08 µM value has been reported for `CN(C)CCCN1c2ccccc2CCc2ccc(Cl)cc21` ?
# output 18.5
